Tested on: NO production in LPS-activated murine macrophage RAW 264.7 cells
experimentalProtocol: cells
Type: cell-based, mouse
experimentalConditions: Mus musculus, RAW264.7; LPS-activated RAW 264.7 cells; read-out: Nitrite assay IC50
Structures can show the parent of a compound that is named as a salt.
# IC50 annotations
Kindly answer with a numeric value in µM, unit omitted.

Worked cases, answers included:
Input line: Identify the measured IC50 of [H]/N=C(/NC)NCCC[C@H](N)C(=O)O [L-NMMA, L-N^G-Monomethyl arginine citrate, reference compound] for NO production in LPS-activated murine macrophage RAW 264.7 cells.
Output line: 23.5

Input line: Please do the same for CO[C@H]1CC(=O)[C@]2(C)C3CC[C@@]4(C)C(=C3C[C@H]3O[C@]32[C@H]1O)CC[C@@]4(O)[C@@](C)(O)C1CC(C)=C(C)C(=O)O1 (stereo partly drawn) [Compound 4, physalactone] as well.
Output line: 1.8

Attention now shifts to the item below.
Input line: Identify the measured IC50 of CO[C@H]1CC(=O)[C@]2(C)C3CC[C@@]4(C)C(=C3C[C@H]3O[C@]32[C@H]1OC(C)=O)CC[C@@]4(O)[C@@](C)(O)C1CC(C)=C(C)C(=O)O1 (stereo partly drawn) [Compound 4a] for NO production in LPS-activated murine macrophage RAW 264.7 cells.
Output line: 0.24

----------
experimentalProtocol: SRB cytotoxicity / survival of RAW 264.7 cells in the nitrite assay
Format: cell-based, mouse
experimentalConditions: mouse; cytotoxicity in RAW 264.7 cells, NO assay; read-out: cytotoxic IC50
recordedEndpoint: IC50 at 20 h (µM)
Kindly answer with a numeric value in µM, unit omitted.

Input line: For the compound shown here, CC(=O)O[C@H]1C=CC(=O)[C@]2(C)C3CC[C@]4(C)[C@](O)([C@@](C)(O)C5CC(C)=C(C)C(=O)O5)CC[C@@]4(O)C3C[C@H]3O[C@]132 (some centres unmarked) , give the reported IC50 at 20 h.
Output line: 2.1

Attention now shifts to the item below.
Input line: For the compound shown here, CC1=C(C)C(=O)OC([C@](C)(O)[C@]2(O)CC[C@@]3(O)C4C[C@H]5O[C@]56[C@@H](O)C=CC(=O)[C@]6(C)C4CC[C@]23C)C1 (stereo partly drawn) [Compound 3, 4β-hydroxywithanolide E] , give the reported IC50 at 20 h.
Output line: 14

----------
Tested on: RAW 264.7 cells
experimentalProtocol: SRB cytotoxicity / survival of RAW 264.7 cells in the nitrite assay
Format: cell-based, mouse
experimentalConditions: % survival at a concentration of 50 μM, RAW 264.7
recordedEndpoint: Nitrite assay % surv. (%)
Kindly answer with a numeric value in %, unit omitted.

Worked cases, answers included:
Input line: For the molecule shown here, CC1=C(C)C(=O)OC([C@](C)(O)[C@]2(O)CC[C@@]3(O)C4C[C@@H](O)C5=CC=CC(=O)[C@]5(C)C4CC[C@]23C)C1 (stereo partly shown) [Compound 5, withaperuvin C] , give the reported Nitrite assay % surv..
Output line: 79.3

Input line: Please do the same for CC1=C(C)C(=O)OC(C(C)(O)C2(O)CCC3(O)C4CC(Cl)C5(O)C(O)C=CC(=O)C5(C)C4CCC32C)C1 (stereo not shown) [Compound 2] as well.
Output line: 96.1

Input line: Please do the same for CO[C@H]1CC(=O)[C@]2(C)C3CC[C@@]4(C)C(=C3C[C@H]3O[C@]32[C@H]1O)CC[C@@]4(O)[C@@](C)(O)C1CC(C)=C(C)C(=O)O1 (stereo partly shown) [Compound 4, physalactone] as well.
Output line: 90.7

Attention now shifts to the item below.
Input line: For the molecule shown here, CO[C@H]1CC(=O)[C@]2(C)C3CC[C@@]4(C)C(=C3C[C@H]3O[C@]32[C@H]1OC(C)=O)CC[C@@]4(O)[C@@](C)(O)C1CC(C)=C(C)C(=O)O1 (stereo partly shown) [Compound 4a] , give the reported Nitrite assay % surv..
Output line: 40.3

Data origin, for the record: paper PMC12035931
